Target: rCYP3A4 (Homo sapiens)
Sequence (P08684 whole entry): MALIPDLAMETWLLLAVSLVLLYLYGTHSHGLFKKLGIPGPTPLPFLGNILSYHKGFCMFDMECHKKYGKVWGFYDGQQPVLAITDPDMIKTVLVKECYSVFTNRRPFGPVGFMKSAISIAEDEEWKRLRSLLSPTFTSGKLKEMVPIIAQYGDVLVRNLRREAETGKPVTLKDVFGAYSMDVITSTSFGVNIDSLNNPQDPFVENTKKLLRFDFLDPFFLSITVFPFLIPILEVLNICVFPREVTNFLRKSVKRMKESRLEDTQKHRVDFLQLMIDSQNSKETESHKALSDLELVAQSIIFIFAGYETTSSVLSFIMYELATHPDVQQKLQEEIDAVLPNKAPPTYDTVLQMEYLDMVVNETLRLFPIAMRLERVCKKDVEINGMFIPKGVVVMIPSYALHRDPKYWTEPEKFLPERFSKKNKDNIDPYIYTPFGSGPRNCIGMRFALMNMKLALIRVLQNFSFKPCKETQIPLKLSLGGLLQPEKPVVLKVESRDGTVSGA
Settings: human, recombinant enzyme, pH 7.4
reportedProperty: % Contribution of CYP Enzymes (fmCYP) in Metabolism, CYP3A4 (%)
Answers are plain numbers, in %.

Before answering, review these 4 worked examples.
1. O=C1Cc2cc(CCN3CCN(c4nsc5ccccc45)CC3)c(Cl)cc2N1 [Ziprasidone, ziprasidone, reference compound]    86.67
2. CSc1nc2cc(Cl)c(Oc3cccc(Cl)c3Cl)cc2[nH]1 [Triclabendazole, reference compound]    4.02
3. CC(C)(O)c1ccccc1CC[C@@H](SCC1(CC(=O)O)CC1)c1cccc(/C=C/c2ccc3ccc(Cl)cc3n2)c1 [Montelukast, montelukast, reference compound]    47.07
4. CNC(=O)Oc1cc(C)c(SC)c(C)c1 [Methiocarb, methiocarb]    81.34

Below: the item to evaluate.
% Contribution of CYP Enzymes (fmCYP) in Metabolism, CYP3A4 for rCYP3A4 (Homo sapiens) with input CNC(=O)O/N=C/C(C)(C)[S+](C)[O-] (centres unmarked) [Aldicarb sulfoxide, aldicarb sulfoxide] equals 97.66

----------
Biological target: CYP3A4 (Homo sapiens, UniProt P08684)
Test: in vitro
Conditions: microsomes, pH 7.4, % Inhibition of Control Activity CYP3A4 (substrate, testosterone)
Record form. Attribute: inhibition at 10 µM. Fill in for each entry.
Give bare numbers, in %.

Before answering, review these 2 worked examples.
1. CC(C)(O)c1ccccc1CC[C@@H](SCC1(CC(=O)O)CC1)c1cccc(/C=C/c2ccc3ccc(Cl)cc3n2)c1 [Montelukast, montelukast, reference compound]    11.2
2. CSc1nc2cc(Cl)c(Oc3cccc(Cl)c3Cl)cc2[nH]1 [Triclabendazole, reference compound]    52.9

response.value for CNC(=O)Oc1cc(C)c(SC)c(C)c1 [Methiocarb, methiocarb] (field: inhibition at 10 µM) = 29.7

----------
Biological target: rCYP2C9 (Homo sapiens, UniProt P11712)
Sequence (P11712 whole entry): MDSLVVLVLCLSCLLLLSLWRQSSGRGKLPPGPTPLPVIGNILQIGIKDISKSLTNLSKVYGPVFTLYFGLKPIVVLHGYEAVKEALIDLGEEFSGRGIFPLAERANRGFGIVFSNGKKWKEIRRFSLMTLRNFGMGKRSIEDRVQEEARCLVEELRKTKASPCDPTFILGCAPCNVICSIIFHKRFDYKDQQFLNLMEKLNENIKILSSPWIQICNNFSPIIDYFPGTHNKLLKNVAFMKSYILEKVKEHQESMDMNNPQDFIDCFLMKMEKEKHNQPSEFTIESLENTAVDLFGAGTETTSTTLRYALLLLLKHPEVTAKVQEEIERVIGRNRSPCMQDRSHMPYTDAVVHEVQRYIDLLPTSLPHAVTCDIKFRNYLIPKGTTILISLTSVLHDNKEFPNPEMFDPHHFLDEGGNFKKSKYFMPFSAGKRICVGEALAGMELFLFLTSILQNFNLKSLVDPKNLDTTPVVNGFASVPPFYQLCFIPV
Assay: Metabolic stability / reaction phenotyping with recombinant human CYP2C9
Conditions: human, recombinant human CYP2C9, 1 µM, pH 7.4
reportedProperty: rCYP Clint, CYP2C9 (µL/min/pmol)
Answers are plain numbers, in µL/min/pmol.

Before answering, review these 4 worked examples.
1. CCCSc1ccc2nc(NC(=O)OC)[nH]c2c1 [Albendazole, albendazole, reference compound]    0.020
2. CSc1nc2cc(Cl)c(Oc3cccc(Cl)c3Cl)cc2[nH]1 [Triclabendazole, reference compound]    0.266
3. CNC(=O)Oc1cc(C)c(SC)c(C)c1    0.022
4. CC(C)(O)c1ccccc1CC[C@@H](SCC1(CC(=O)O)CC1)c1cccc(/C=C/c2ccc3ccc(Cl)cc3n2)c1 [Montelukast, montelukast, reference compound]    0.038

Below: the item to evaluate.
response.value for `CNC(=O)O/N=C/C(C)(C)SC` (field: rCYP Clint, CYP2C9) = 0.024

----------
Record form. Attribute: % Metabolized at 30 min Incubation with Human Liver Fractions/Enzymes rCYP2D6. Fill in for each entry.
Target: rCYP2D6 (Homo sapiens, UniProt P10635)
Sequence (P10635 whole entry): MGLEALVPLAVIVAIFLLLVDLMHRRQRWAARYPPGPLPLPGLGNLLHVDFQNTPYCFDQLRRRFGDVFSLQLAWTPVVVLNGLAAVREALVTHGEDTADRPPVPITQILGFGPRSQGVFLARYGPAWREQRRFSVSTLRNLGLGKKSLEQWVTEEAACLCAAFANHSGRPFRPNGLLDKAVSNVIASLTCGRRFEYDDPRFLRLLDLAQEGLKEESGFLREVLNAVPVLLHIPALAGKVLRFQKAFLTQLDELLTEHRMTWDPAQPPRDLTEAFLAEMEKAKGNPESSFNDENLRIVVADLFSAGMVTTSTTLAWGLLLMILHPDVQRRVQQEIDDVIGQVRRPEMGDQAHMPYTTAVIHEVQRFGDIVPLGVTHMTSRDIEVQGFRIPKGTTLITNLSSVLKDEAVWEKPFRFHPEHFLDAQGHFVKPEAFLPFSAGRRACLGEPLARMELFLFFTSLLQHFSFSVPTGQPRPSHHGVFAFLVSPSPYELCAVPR
Assay: Metabolic stability / reaction phenotyping with recombinant human CYP2D6
Conditions: 1 µM test compound; 100 pmol/mL; 30 min
Answers are plain numbers, in %.

Before answering, review these 2 worked examples.
1) CC(C)(O)c1ccccc1CC[C@@H](SCC1(CC(=O)O)CC1)c1cccc(/C=C/c2ccc3ccc(Cl)cc3n2)c1 [Montelukast, montelukast, reference compound]    7.46
2) CSc1nc2cc(Cl)c(Oc3cccc(Cl)c3Cl)cc2[nH]1 [Triclabendazole, reference compound]    73.66

% Metabolized at 30 min Incubation with Human Liver Fractions/Enzymes rCYP2D6 for rCYP2D6 (Homo sapiens, UniProt P10635) with input O=C1Cc2cc(CCN3CCN(c4nsc5ccccc45)CC3)c(Cl)cc2N1 [Ziprasidone, ziprasidone, reference compound] equals 3.73
